# Tested on: methicillin-resistant Staphylococcus aureus (MRSA) isolates
# experiment.summary: MIC measured by agar dilution method (CLSI)
# Assay type: cell-based
# reported.conditions: Staphylococcus aureus, MRSA, strain 3265; LEV^R RIF^S; agar dilution
# Procedure: Spontaneous mutation and minimal inhibit concentration (MIC) tested by agar dilution method, the above compounds are respectively prepared into a stock solution (100X) with a concentration 100 times the highest final concentration in corresponding solvents and used on the same day. […] MIC measured by agar dilution method: according to the recommendation from the Clinical and Laboratory Standards Institute (CLSI), the MIC value is measured by the agar dilution method. […]
MIC values for the compounds below.

Entry CO[C@H]1/C=C/O[C@@]2(C)Oc3c(C)c(O)c4c(O)c(c(/C=N/N5CCN(C)CC5)c(O)c4c3C2=O)NC(=O)/C(C)=C\C=C\[C@H](C)[C@H](O)[C@@H](C)[C@@H](O)[C@@H](C)[C@H](OC(C)=O)[C@@H]1C [Rifampicin] , system methicillin-resistant Staphylococcus aureus (MRSA) isolates: what MIC was measured?
0.008 µg/mL

Continuing:
Requested read-out MIC, target or system methicillin-resistant Staphylococcus aureus (MRSA) isolates, entry C[C@H]1COc2c(N3CCN(C)CC3)c(F)cc3c(=O)c(C(=O)O)cn1c23 [Levofloxacin]
64 µg/mL

Notebook: pull reported MIC for methicillin-resistant Staphylococcus aureus (MRSA) isolates, entry Cc1onc(-c2ccccc2)c1C(=O)N[C@@H]1C(=O)N2[C@@H]1SC(C)(C)[C@@H]2C(=O)O [Oxacillin]
> 8 µg/mL

Lab note: need MIC for CO[C@H]1/C=C/O[C@@]2(C)Oc3c(C)c(O)c4c(O)c(c(/C=N/N5CCC(N(C)C6([C@@H]7CCN(c8c(F)cn9c(=O)c(C(=O)O)cc(C%10CC%10)c9c8C)C7)CC6)CC5)c(O)c4c3C2=O)NC(=O)/C(C)=C\C=C\[C@H](C)[C@H](O)[C@@H](C)[C@@H](O)[C@@H](C)[C@H](OC(C)=O)[C@@H]1C [I] on methicillin-resistant Staphylococcus aureus (MRSA) isolates, anyone have it?
0.015 µg/mL
